Give measured pEC50 for each item. Keep answers brief.
- Protocol: Inhibition of Chikungunya virus nsP2 protease infected in African green monkey Vero cells assessed as inhibition of viral-induced cytopathic effect by titration assay
Entry type: numeric. Quantity: pEC50, the -log10 of concentration in molar units.

Data request, read-out pEC50, for CCOc1ccc(/C=N/NC(=O)C2CC2c2ccc(C(C)(C)C)cc2)cc1OCC (configuration not stated) 5.30

How about this compound: CCOc1ccc(/C=N/NC(=O)/C=C/Cc2ccc(C(C)(C)C)cc2)cc1OCC 5.49
